Tested on: OVCAR-4 ovarian
Test Description: NCI tumour cell line growth inhibition, 48 h
Give measured TGI for each item. Keep answers brief.

>  <Compound>
CCOn1cc(C2=C(c3c[nH]c4ccccc34)C(=O)NC2=O)c2ccccc21

>  <TGI>
> 72.4 µM

$$$$
>  <Compound>
CN(C)CC1CCn2c(c(C3=C(c4cn(C)c5ccccc45)C(=O)NC3=O)c3ccccc32)C1 (stereo not given)

>  <TGI>
9.3 µM

$$$$
>  <Compound>
CC[C@H](C)C(=O)O[C@H]1CCC=C2C=C[C@H](C)C(CCC3C[C@@H](O)CC(=O)O3)[C@H]21 (stereo not given in full)

>  <TGI>
> 100 µM

$$$$

For every item below, please supply its TGI.
1. O=C(/C=C/c1cccs1)c1ccc(C(=O)/C=C/c2cccs2)cc1
2. O=C(O)CCSc1nnc(COc2ccc(Cl)cc2)n1-c1ccccc1

["> 100 µM", "> 100 µM"]
